Test system: S. cerevisiae BY4741 DNA content flow cytometry, cell cycle
experimental.details: S. cerevisiae cell cycle DNA content profile – flow cytometry (AID 504936);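 further: yeast exposed to compound for three five or seven days before fixation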
condition.parameters: at 10 µM; stronger effect = higher value
Reported G1/G0 population is given for each of the following compounds.
Note: unit % is implicit; provide only the numeric part.

The examples below pair each entry with its known result.
C#CCSc1ccc(-c2ccc([N+](=O)[O-])cc2)o1: 79.6
CNc1ccc2nc3ccccc3[n+](C)c2c1: 52.8

Consider now this further compound.
Which G1/G0 population is listed for `O=C(/C=C/c1cccs1)NC(=S)NNC(=O)Cc1cccs1` ?
73

* * *

Tested on: S. cerevisiae BY4741 DNA content flow cytometry, cell cycle
experimental.details: S. cerevisiae cell cycle DNA content profile – flow cytometry (AID 504936);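 further: yeast exposed to compound for three five or seven days before fixation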
condition.parameters: measured here: G2 phase fraction; at 10 µM; stronger effect = lower value
measurement.type: G2 population (%)
Note: unit % is implicit; provide only the numeric part.

N#CC(c1nc2ccccc2nc1N1CCCC1)S(=O)(=O)c1ccccc1 (centres undefined): 11.9
COc1ccc2nc3ccccc3[n+]([O-])c2c1: 13.5
CC(C)(C)n1nc(-c2ccc(F)cc2)c2c(N)ncnc21: 3.33

Consider now this further molecule.
Notebook: pull reported G2 population for S. cerevisiae BY4741 DNA content flow cytometry, cell cycle, entry `C#CCSc1ccc(-c2ccc([N+](=O)[O-])cc2)o1`
11

Data credit: PubChem BioAssay AID504936
